Measured melting point accompanies every entry in the list below.

{"STRUCTURE SMILES": "C[C@H](CCC(=O)NCC(=O)O)[C@H]1CC[C@H]2[C@@H]3CC[C@@H]4CCCC[C@]4(C)[C@H]3CC[C@]12C", "melting point": "192 to 195 °C"}
{"STRUCTURE SMILES": "C[C@H](CCC(=O)N[C@@H](Cc1c[nH]c2ccccc12)C(=O)O)[C@H]1CC[C@H]2[C@@H]3CC[C@@H]4CCCC[C@]4(C)[C@H]3CC[C@]12C", "melting point": "98 to 101 °C"}
{"STRUCTURE SMILES": "C[C@H](CCC(=O)N[C@H](Cc1c[nH]c2ccccc12)C(=O)O)[C@H]1CC[C@H]2[C@@H]3CC[C@@H]4CCCC[C@]4(C)[C@H]3CC[C@]12C", "melting point": "141 to 145 °C"}
{"STRUCTURE SMILES": "C[C@H](CCC(=O)NCCC(=O)O)[C@H]1CC[C@H]2[C@@H]3CC[C@@H]4CCCC[C@]4(C)[C@H]3CC[C@]12C", "melting point": "152 to 155 °C"}
{"STRUCTURE SMILES": "C[C@H](CCC(=O)N[C@H](Cc1ccccc1)C(=O)O)[C@H]1CC[C@H]2[C@@H]3CC[C@@H]4CCCC[C@]4(C)[C@H]3CC[C@]12C", "melting point": "195 to 198 °C"}
{"STRUCTURE SMILES": "C[C@H](CCC(=O)N[C@@H](Cc1ccccc1)C(=O)O)[C@H]1CC[C@H]2[C@@H]3CC[C@@H]4CCCC[C@]4(C)[C@H]3CC[C@]12C", "melting point": "189 to 192 °C"}
